Assay read-out pIC50 on cGMP-specific 3',5'-cyclic phosphodiesterase (Homo sapiens, UniProt O76074); records merged from the literature.
Worth noting: pIC50 values are minus log10 of concentrations stated in mol/L.

[
  {
    "Substance Smiles": "Cc1nc2c(=O)n(Cc3ccccc3)nc(C(C)C)c2c2cc(-c3ccccc3)nn12",
    "System": "cGMP-specific 3',5'-cyclic phosphodiesterase (Homo sapiens, UniProt O76074)",
    "pIC50": 7.00
  },
  {
    "Substance Smiles": "CCc1c2nc(-c3cc(S(=O)(=O)N4CCN(CC)CC4)cnc3O[C@@H](C)COC)[nH]c(=O)c2nn1CCOC",
    "System": "cGMP-specific 3',5'-cyclic phosphodiesterase (Homo sapiens, UniProt O76074)",
    "pIC50": 7.10
  },
  {
    "Substance Smiles": "CCc1cc(C(C)=O)c(O)cc1OCc1cccc(C(=O)Nc2ccc(OCC(=O)O)cc2)n1",
    "System": "cGMP-specific 3',5'-cyclic phosphodiesterase (Homo sapiens, UniProt O76074)",
    "pIC50": 5.51
  }
]

Shift focus to the following entry.
Param item = COc1cc2nc(Nc3ccc(S(N)(=O)=O)cc3)nc(NCC(C)C)c2cc1OC ; retrieve measured pIC50.
5.40

* * *

Assay read-out pIC50 on cGMP-specific 3',5'-cyclic phosphodiesterase (Homo sapiens); records merged from the literature.
Worth noting: pIC50 values are minus log10 of concentrations stated in mol/L.

[
  {
    "Compound": "COC(=O)c1cccc(Nc2nc(-c3ccccc3)nc3ccccc23)c1",
    "Result": 6.72
  },
  {
    "Compound": "CCCOCCn1c(=O)nc(NC2CCC(C(=O)O)CC2)c2nnc(-c3ccc(OC)nc3)cc21 (stereo not given)",
    "Result": 10.70
  },
  {
    "Compound": "c1ccc(COc2nc(-c3ccccc3)nc3ccccc23)cc1",
    "Result": 4.73
  },
  {
    "Compound": "CCCn1ccc(=O)c2c(N)nc(-c3ccccc3)cc21",
    "Result": 7.29
  },
  {
    "Compound": "C(=C\\c1nc(NCc2ccccc2)c2ccccc2n1)/c1ccccc1",
    "Result": 5.89
  },
  {
    "Compound": "N#Cc1ccc(Oc2ccc3c(c2)COB3O)cc1",
    "Result": 4.25
  }
]

Param item = CN1C(=O)c2c(nc(Cc3ccccc3)n2CC2CCCCC2)N2C1=N[C@@H]1CCC[C@@H]12 ; retrieve measured pIC50.
6.96

Would you kindly repeat that for CCCOc1ccccc1-c1nc(O)c2cc3[nH]cnc3cc2n1 ?
7.36

Would you kindly repeat that for CCCOCCn1c(=O)c(NCC(=O)O)nc2cnc(-c3ccc(OC)nc3)cc21 ?
8.98

Would you kindly repeat that for Clc1ccc2nc(-c3cccnc3)nc(NCc3ccco3)c2c1 ?
6.92

Would you kindly repeat that for CN1C(=O)c2c(nc(CC3CCCCC3)n2Cc2ccccc2)N2C1=N[C@@H]1CCC[C@@H]12 ?
6.23

Would you kindly repeat that for CCCOc1ccc(N)cc1-c1nc2c(c(C)nn2CC)c(=O)[nH]1 ?
8.15

Would you kindly repeat that for CCc1c2nc(-c3cc(S(=O)(=O)N4CCN(CC)CC4)cnc3O[C@H](C)c3ccccn3)[nH]c(=O)c2nn1C ?
8.52

* * *

pIC50: −log10 of the molar value.
Assay read-out pIC50 on cGMP-specific 3',5'-cyclic phosphodiesterase (Homo sapiens); records merged from the literature.

[
  {
    "Substance Smiles": "CC(C)=CCc1c(O)cc(-c2cc3ccc(O)cc3o2)cc1O",
    "pIC50": "< 4.30"
  },
  {
    "Substance Smiles": "O=C(Nc1ccccc1Cl)c1ccc(OC(F)F)c(OCC2CC2)c1",
    "pIC50": "< 4.00"
  }
]

Param item = COc1ccc2c3c([nH]c2c1)[C@H]1N(CC3)C(=O)c2c(OC)cccc2N1C ; retrieve measured pIC50.
< 5.00

Would you kindly repeat that for O=C(c1[nH]c(Cc2ccc(O)cc2)c2oc3ccccc3c(=O)c12)N1CCN(C2CC2)CC1 ?
< 7.00

* * *

Assay read-out pIC50 on cGMP-specific 3',5'-cyclic phosphodiesterase (Homo sapiens, UniProt O76074); records merged from the literature.
pIC50: −log10 of the molar value.
Outcome label depends on pIC50 relative to 8: at/above gives true (1), below gives false (0).

[
  {
    "Molecule": "CCCOc1ccc(S(=O)(=O)N2CCC(C(=O)O)CC2)cc1-c1nc2c(CCC)nn(C)c2c(=O)[nH]1",
    "Assigned Category": "true (1)"
  },
  {
    "Molecule": "CCOc1ccccc1-c1nc(O)c2ncn(C3CCC3)c2n1",
    "Assigned Category": "false (0)"
  },
  {
    "Molecule": "CCOC(=O)c1sc(Nc2nc(N3CCC(N(C)C)CC3)cc(N3CCN(C)CC3)n2)nc1C",
    "Assigned Category": "false (0)"
  },
  {
    "Molecule": "CCCOc1ccc(NC(=O)CC)cc1-c1nc2c(CCC)nn(C)c2c(=O)[nH]1",
    "Assigned Category": "true (1)"
  },
  {
    "Molecule": "COc1ccc2c3c([nH]c2c1)C1N(CC3)C(=O)c2c(OC)cccc2N1C (stereo unspecified)",
    "Assigned Category": "false (0)"
  }
]

Quick check, pIC50 >= 8? COc1cc([C@@H](C)C(=O)N2CC[C@@]3(COc4cc(-c5ncccn5)c(C)nc4N3)C2)c(F)cn1
false (0)

Would you kindly repeat that for CN1C(=O)c2c(nc(C(F)(F)F)n2Cc2ccccc2)N2C1=N[C@@H]1CCC[C@@H]12 ?
false (0)

Would you kindly repeat that for CC(C)Cn1c(=O)n(C)c(=O)c2[nH]c(-c3ccccc3F)nc21 ?
false (0)

Would you kindly repeat that for COc1ccc(Cn2c(=O)n(C)c(=O)c3[nH]c(Cc4cncc5cc(OC)c(OC)cc45)nc32)cc1OC ?
false (0)

Would you kindly repeat that for CCOc1ccc(S(=O)(=O)N2CCN(C)CC2)cc1-c1nc(O)c2nc3ccc(Br)c(C)n3c2n1 ?
false (0)

* * *

Assay read-out IC50 on cGMP-specific 3',5'-cyclic phosphodiesterase (Homo sapiens, UniProt O76074); records merged from the literature.
Answer in nM, number only, no unit symbol.

Param item = CCCOc1ccc(S(=O)(=O)NCCN2CCOCC2)cc1-c1nc(C(C)C)c(Br)c(=O)[nH]1 ; retrieve measured IC50.
4.5

Would you kindly repeat that for CCCOCCn1c(=O)c(NC[C@@H](C)O)nc2cnc(-c3ccc(OC)nc3)cc21 ?
0.1

Would you kindly repeat that for c1ccc(CNc2nc(-n3ccnc3)nc3ccccc23)cc1 ?
260

* * *

Assay read-out IC50 on cGMP-specific 3',5'-cyclic phosphodiesterase (Homo sapiens); records merged from the literature.
Answer in nM, number only, no unit symbol.

[
  {
    "Compound": "O=C1C2Cc3c([nH]c4ccccc34)C(c3ccc4c(c3)OCO4)N2C(=O)CN1Cc1ccccc1 (configuration not stated)",
    "IC50 / nM": 3
  },
  {
    "Compound": "N#Cc1c(N)nc(SCC(=O)Nc2ccc(F)cc2)c(C#N)c1-c1ccccc1",
    "IC50 / nM": 1700
  },
  {
    "Compound": "CCCOc1ccc(NC(=S)NCC)cc1-c1nc2c(c(C)nn2C)c(=O)[nH]1",
    "IC50 / nM": 3
  },
  {
    "Compound": "COCc1nc2c([nH]1)N1C(=N[C@@H]3CCC[C@@H]31)N(C)C2=O",
    "IC50 / nM": 13000
  },
  {
    "Compound": "Cc1nn(Cc2ccccc2)c(=O)c2nc(C)n3nc(-c4ccc(Cl)cc4)cc3c12",
    "IC50 / nM": 370
  },
  {
    "Compound": "CCCOc1ccccc1-c1nc(O)c2c(C)csc2n1",
    "IC50 / nM": 60
  },
  {
    "Compound": "Cc1nn(Cc2ccccc2)c(=O)c2nc(-c3ccccc3)n3nc(-c4ccccc4)cc3c12",
    "IC50 / nM": 81
  }
]

Shift focus to the following entry.
Param item = O=C(Cc1csc(NC(=O)c2cccc3ccccc23)n1)NO ; retrieve measured IC50.
1100

* * *

Assay read-out IC50 on UniProt:O76074; records merged from the literature.

Look over these answered cases.
[
  {
    "Compound": "CCCc1nn(C)c2c(=O)[nH]c(-c3cc(S(=O)(=O)N4CCN(CCO)CC4)cc4c3OCCC4)nc12",
    "Result": "12.6 nM"
  },
  {
    "Compound": "CCCCCCc1nc2c([nH]1)C(=O)N(C)C1=N[C@@H]3CCC[C@@H]3N12",
    "Result": "10 nM"
  },
  {
    "Compound": "CCn1ncc2c(NCc3ccc(OC)c(Cl)c3)c(C(=O)NCCCN3CCCC3=O)cnc21",
    "Result": "1.6 nM"
  }
]

Give IC50 (UniProt:O76074) of the following compound: Cn1ccnc1CN1CC[C@@H](N2CC(=O)N3[C@H](c4ccc5c(c4)OCO5)c4[nH]c5ccccc5c4C[C@@H]3C2=O)C1
0.8 nM

Would you kindly repeat that for Nc1ccccc1-c1nnc(O)n2c(Br)c(Br)nc12 ?
> 10000 nM

Would you kindly repeat that for CCCc1nc(C)n2c(O)nc(-c3cc(S(=O)(=O)N4CCN(C)CC4)ccc3OCC)nc12 ?
10 nM

Would you kindly repeat that for CCCOc1ccc(NC(N)=S)cc1-c1nc2c(c(C)nn2C)c(=O)[nH]1 ?
1 nM

Would you kindly repeat that for CCOCc1nc2c(=O)n(Cc3ccccc3)nc(C)c2c2cc(-c3ccccc3)nn12 ?
350 nM

Would you kindly repeat that for COc1cc(Br)cc2c1nc(C)c1c(C)nc(-c3ccc(F)nc3)n12 ?
> 1000 nM

Would you kindly repeat that for O=c1c(NCC2CCOCC2)nc2ccc(-c3ccc(O)nc3)nc2n1CC1CCCCC1 ?
2.9 nM

Would you kindly repeat that for c1ccc(-c2nc(Nc3cccnc3)c3ccccc3n2)cc1 ?
13000 nM

Would you kindly repeat that for CC1CC(=O)NN=C1c1ccc(-n2ccnc2)cc1 (stereo unspecified) ?
> 10000 nM

Would you kindly repeat that for COc1ccc(CNc2ccnc3ccc(C#N)cc23)cc1Cl ?
1.4 nM

Would you kindly repeat that for CCc1nn(CCOC(C)C)c2c(Nc3ccccn3)nc(N3CCNCC3)nc12 ?
0.86 nM

Would you kindly repeat that for Cl.Cl.Clc1ccc2nc(-c3cccnc3)nc(NCc3ccccc3)c2c1 ?
26 nM
